experimental.target: T1, PHD_(Pygo2)–HD1_(BCL9) complex (human, UniProt Q9BRQ0 327-387; O00512 177-205)
T1 chain: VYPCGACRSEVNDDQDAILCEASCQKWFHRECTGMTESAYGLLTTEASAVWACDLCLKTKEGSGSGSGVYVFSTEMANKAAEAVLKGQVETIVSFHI
experiment.notes: ITC
Where no end group is shown, it is not given here. Me2 = dimethyl
measured.parameter: pKd
Answers are plain numbers, as −log10 of the molar value.

Q) Quick check: pKd of ARTK(Me2)QTARKSTGGKA [15-mer H3K4me2 histone tail peptide (histone H3 tail dimethylated at lysine 4)] ?
A) 5.69
